The reported measurements were obtained from the supplement of paper PMC7840683.

Test system: HepaRG
Assay: LDH release cytotoxicity, % of total lysis control; higher = more cytotoxic
Conditions: 10 µM; 48 h
Structures can show the parent of a compound that is named as a salt.
quantity-kind: LDH release cytotoxicity

Input line: Lab note: need LDH release cytotoxicity for CCCCCCCCCCCCCCOS(=O)(=O)O [Sodium myristyl sulfate] on HepaRG, anyone have it?
Output line: -1.43%

Input line: Lab note: need LDH release cytotoxicity for CC(C)(c1cc(Br)c(O)c(Br)c1)c1cc(Br)c(O)c(Br)c1 on HepaRG, anyone have it?
Output line: -0.155%

Input line: Lab note: need LDH release cytotoxicity for c1ccc(OP(Oc2ccccc2)Oc2ccccc2)cc1 on HepaRG, anyone have it?
Output line: -1.22%

Input line: Lab note: need LDH release cytotoxicity for CCCCC(CC)C(=O)OCCOCCOCCOC(=O)C(CC)CCCC (centres undefined) [Triethylene glycol bis(2-ethylhexanoate)] on HepaRG, anyone have it?
Output line: -4.01%

Input line: Lab note: need LDH release cytotoxicity for O=Cc1ccco1 on HepaRG, anyone have it?
Output line: -0.135%

Input line: Lab note: need LDH release cytotoxicity for Cc1ccccc1O on HepaRG, anyone have it?
Output line: -0.686%

Input line: Lab note: need LDH release cytotoxicity for NC(=O)c1nc(-c2cccc(-c3cc(F)ccc3OCC(F)(F)C(F)(F)F)c2)n[nH]1 on HepaRG, anyone have it?
Output line: -0.915%

Input line: Lab note: need LDH release cytotoxicity for CCOc1ccc2c(c1)C(C)=CC(C)(C)N2 on HepaRG, anyone have it?
Output line: -1.77%

Input line: Lab note: need LDH release cytotoxicity for CC(C)CCCCCCCOC(=O)CCCCC(=O)OCCCCCCCC(C)C [Diisodecyl hexanedioate] on HepaRG, anyone have it?
Output line: -1.13%

Input line: Lab note: need LDH release cytotoxicity for CCOC(=O)COc1cc(-c2nn(C)c(OC(F)F)c2Cl)c(F)cc1Cl on HepaRG, anyone have it?
Output line: -0.751%

Input line: Lab note: need LDH release cytotoxicity for Cc1nc(-c2ccc3c(c2)CCN(CCC2CCC(NC(=O)C=Cc4ccc(F)cc4)CC2)CC3)no1 (centres undefined) on HepaRG, anyone have it?
Output line: -0.292%

Input line: Lab note: need LDH release cytotoxicity for Cc1cc(C)c(O)c(C)c1 on HepaRG, anyone have it?
Output line: -0.296%

Input line: Lab note: need LDH release cytotoxicity for C1CC2OC2CC1C1CO1 (centres undefined) [4-Vinyl-1-cyclohexene dioxide] on HepaRG, anyone have it?
Output line: -1.43%

Input line: Lab note: need LDH release cytotoxicity for CN(C)c1ccc(Cc2ccc(N(C)C)cc2)cc1 on HepaRG, anyone have it?
Output line: -1.04%

Input line: Lab note: need LDH release cytotoxicity for CC(C=CC1=C(C)CCCC1(C)C)=CC=CC(C)=CC(=O)O [all-trans-Retinoic acid] on HepaRG, anyone have it?
Output line: -1.87%

Input line: Lab note: need LDH release cytotoxicity for O=C(O)c1cc(N=Nc2ccc(S(=O)(=O)Nc3ccccn3)cc2)ccc1O on HepaRG, anyone have it?
Output line: 0.367%

Input line: Lab note: need LDH release cytotoxicity for CS(=O)(=O)OCCCCOS(C)(=O)=O on HepaRG, anyone have it?
Output line: -0.461%

Input line: Lab note: need LDH release cytotoxicity for Nc1ccc(C(=O)O)cc1 on HepaRG, anyone have it?
Output line: -1.41%

Input line: Lab note: need LDH release cytotoxicity for O=C(Nc1ccc([N+](=O)[O-])cc1Cl)c1cc(Cl)ccc1O [5-Chloro-N-(2-chloro-4-nitrophenyl)-2-hydroxybenzamide] on HepaRG, anyone have it?
Output line: 1.07%
